SYSTEM_UNDER_TEST: human 5-HT2C receptor (Homo sapiens, UniProt P28335)
Construct: expressed in transfected cells; host or cells: HEK 293 membrane preparations
Sequence (P28335 33-458): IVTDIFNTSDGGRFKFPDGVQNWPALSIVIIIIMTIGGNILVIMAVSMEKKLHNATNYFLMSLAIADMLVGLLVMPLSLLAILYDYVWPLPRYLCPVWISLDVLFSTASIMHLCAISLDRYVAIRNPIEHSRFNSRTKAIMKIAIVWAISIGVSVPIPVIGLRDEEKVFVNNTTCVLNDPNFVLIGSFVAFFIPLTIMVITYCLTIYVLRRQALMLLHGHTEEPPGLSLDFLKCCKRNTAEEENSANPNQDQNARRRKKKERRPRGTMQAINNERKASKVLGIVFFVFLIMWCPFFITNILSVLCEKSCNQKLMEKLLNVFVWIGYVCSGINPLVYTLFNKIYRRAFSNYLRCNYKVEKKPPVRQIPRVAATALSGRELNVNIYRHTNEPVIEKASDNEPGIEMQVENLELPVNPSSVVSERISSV
EXPERIMENT_SUMMARY: biochemical
CONDITION_LABEL: HEK 293 membranes, [3H]mesulergine; read-out: h5-HT2C Receptor binding Ki ± SD
pKi: −log10 of the molar value.
I'd appreciate it if you could supply pKi values for the items below.

                                   compound  observed_measurement
0  OCCc1c[nH]c2cccc(O)c12 [4-HTP, 4-hydroxytryptophol]                < 5.00

Please find the next compound below.
Prompt line: // fetch pKi given entry O=C(O)Cc1c[nH]c2cccc(O)c12 [4-HIAA, 4-hydroxyindole-3-acetic acid]
Response line: < 5.00

---

EXPERIMENT_SUMMARY: Pharmacokinetics and metabolites in mouse plasma after oral psilocybin
Assay type: in vivo, C57BL/6J mice
CONDITION_LABEL: male, C57BL/6J, po; mouse plasma, 3 mg/kg psilocybin p.o., n = 5; read-out: tmax (mean ± SD)
MEASURED_QUANTITY: Tmax (min)
Answers are plain numbers, in min.

                                   compound  observed_measurement
0  CN(C)CCc1c[nH]c2cccc(OC3O[C@H](C(=O)O)[C@@H](O)[C@H](O)[C@H]3O)c12 (some centres unmarked) [psilocin-O-glucuronide]                    21

For every listed record, write down its Tmax.
1. O=C(O)Cc1c[nH]c2cccc(O)c12 [4-HIAA, 4-hydroxyindole-3-acetic acid]
2. O=C(O)Cc1c[nH]c2cccc(OC3O[C@H](C(=O)O)[C@@H](O)[C@H](O)[C@H]3O)c12 (some centres unmarked) [4-HIAA-glucuronide]
3. CN(C)CCc1c[nH]c2cccc(O)c12 [psilocin, 4-hydroxy-N,N-dimethyltryptamine]

Response line:
18
27
18

---

EXPERIMENT_SUMMARY: Pharmacokinetics and metabolites in mouse plasma after oral psilocybin
Assay type: in vivo, C57BL/6J mice
CONDITION_LABEL: male, C57BL/6J, po; mouse plasma, 3 mg/kg psilocybin p.o., n = 5; read-out: Cmax (mean ± SD)
Procedure: C57BL/6J adult male mice (Janvier, Le Genest-Saint-Isle, France) were maintained in littermate pairs in standard cages (containing sawdust, a sleeping chamber, tissue paper, and a wood stick) with water and pellet food available ad libitium. The colony room was on a reversed light-dark cycle (dark phase 07:00 to 19:00) with temperature at 22°C and humidity at 50–60%. […] Pharmacokinetic parameters were calculated using Phoenix WinNonlin software (version 8.1.0, Certara, Princeton, USA). […]
I'd appreciate it if you could supply Cmax values for the items below.
Give bare numbers, in ng/mL.

Use the examples below as a reference point.
                                   molecule  measured_quantity  observed_measurement
0  O=C(O)Cc1c[nH]c2cccc(OC3O[C@H](C(=O)O)[C@@H](O)[C@H](O)[C@H]3O)c12 (stereo partly shown) [4-HIAA-glucuronide]               Cmax                    30
1  CN(C)CCc1c[nH]c2cccc(O)c12 [psilocin, 4-hydroxy-N,N-dimethyltryptamine]               Cmax                   198
2  O=C(O)Cc1c[nH]c2cccc(O)c12 [4-HIAA, 4-hydroxyindole-3-acetic acid]               Cmax                  84.9

Please find the next molecule below.
Prompt line: // fetch Cmax given entry CN(C)CCc1c[nH]c2cccc(OC3O[C@H](C(=O)O)[C@@H](O)[C@H](O)[C@H]3O)c12 (stereo partly shown) [psilocin-O-glucuronide]
Response line: 521
